Entry source: patent US5008267A

Each entry below carries its recorded activation at 10 µg/mL.
System: Purkinje fiber of the right ventricular free wall (myocardial action potential)
Experiment: Influence on myocardial action potential duration time (APD75), isolated right ventricular free wall, microelectrode in Purkinje fiber
Format: cell-based, dog
Settings: Canis lupus familiaris, 20 min, 10.0 μg/ml, 20 minutes' incubation, (B-A)/A×100, read-out: APD75 (%)
Where a name gives a salt, the structure may show the parent alone.

Solved cases below.
## Input Give activation at 10 µg/mL; test system Purkinje fiber of the right ventricular free wall (myocardial action potential); compound Cn1c(N2CCN(CCCOc3ccc(Cl)cc3[N+](=O)[O-])CC2)cc(=O)n(C)c1=O [Compound 140, hydrochloride]
## Output 29%

## Input Give activation at 10 µg/mL; test system Purkinje fiber of the right ventricular free wall (myocardial action potential); compound Cn1c(N2CCN(CC(=O)c3ccc([N+](=O)[O-])cc3)CC2)cc(=O)n(C)c1=O [Compound 42, hydrochloride]
## Output 17%

***
## Input Give activation at 10 µg/mL; test system Purkinje fiber of the right ventricular free wall (myocardial action potential); compound Cn1c(N2CCN(CCCc3ccc([N+](=O)[O-])cc3)CC2)cc(=O)n(C)c1=O [Compound 33, oxalate]
## Output 31%

## Input Give activation at 10 µg/mL; test system Purkinje fiber of the right ventricular free wall (myocardial action potential); compound Cn1c(NCCN(CCO)CCCCc2ccc([N+](=O)[O-])cc2)cc(=O)n(C)c1=O
## Output 39%

## Input Give activation at 10 µg/mL; test system Purkinje fiber of the right ventricular free wall (myocardial action potential); compound Cn1c(N2CCN(CCCOc3cc([N+](=O)[O-])ccc3O)CC2)cc(=O)n(C)c1=O [Compound 145, hydrochloride]
## Output 23%
